# TGT: S1P3 (Homo sapiens, UniProt Q99500)
# Sequence (Q99500 whole entry, species assumed): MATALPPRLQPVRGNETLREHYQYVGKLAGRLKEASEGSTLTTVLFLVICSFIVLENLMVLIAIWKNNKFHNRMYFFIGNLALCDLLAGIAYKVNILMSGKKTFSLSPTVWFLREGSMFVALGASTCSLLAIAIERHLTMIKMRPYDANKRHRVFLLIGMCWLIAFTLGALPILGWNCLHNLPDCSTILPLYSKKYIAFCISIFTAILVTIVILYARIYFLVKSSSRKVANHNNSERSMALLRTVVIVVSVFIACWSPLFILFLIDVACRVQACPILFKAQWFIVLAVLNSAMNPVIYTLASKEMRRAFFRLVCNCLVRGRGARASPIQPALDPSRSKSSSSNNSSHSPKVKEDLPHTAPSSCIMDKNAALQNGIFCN
# PROTOCOL NOTES: Receptor binding assay, [33P]sphingosine 1-phosphate competition, membranes of CHO cells expressing S1P3
# DETAILS: 384 well plate; read-out: S1P3 Binding Ki [M] (384 well plate)
# Protocol: Membranes were prepared from CHO cells expressing S1P1 or S1P3 for use in ligand binding studies. […] [33P]sphingosine 1-phosphate (3000 Ci/mmol; American Radiolabeled Chemicals, Inc.) was added to test compounds in 20% DMSO by competition. […] Binding was performed for 60 min at RT on a shaker and bound radioactivity was measured on a PerkinElmer 1450 MicroBeta counter. […] Binding data were analyzed using the GraphPad Prism program or Genedata software. […]
Where a name gives a salt, the structure may show the parent alone.
ENDPOINT NAME: Ki (M)

[a] Cc1ccccc1-c1ccc(-c2nc(-c3ccc(CNC(C)(CO)C(=O)O)cc3)no2)cc1C(F)(F)F (stereo not drawn)
[b] CCC(NCc1ccc(-c2noc(-c3ccc(-c4ccccc4C)c(C(F)(F)F)c3)n2)cc1F)C(=O)O (stereo not drawn) [Example 41, hydrochloride salt]
[c] Cc1ccccc1-c1ccc(-c2nc(-c3cccc(C(C)N(C)[C@@H](C)C(=O)O)c3)no2)cc1C(F)(F)F (stereo partly drawn) [Example 29, hydrochloride salt]
[d] Cc1ccccc1-c1ccc(-c2nc(-c3ccc([C@H](C)N[C@H](C)C(=O)O)cc3)no2)cc1C(F)(F)F (racemic) [Example 27, hydrochloride salt]
[e] CC[C@@H](C(=O)O)N(C)Cc1ccc(-c2noc(-c3ccc(-c4ccccc4C)c(C(F)(F)F)c3)n2)cc1
Rank the listed compounds, smallest Ki first and largest last. I'd appreciate it if you listed the labels in the requested order. c, d, a, e, b
